Assayed system: Recombinant human calpain I (Homo sapiens)
Construct: made in house
Sequence (P07384 whole entry): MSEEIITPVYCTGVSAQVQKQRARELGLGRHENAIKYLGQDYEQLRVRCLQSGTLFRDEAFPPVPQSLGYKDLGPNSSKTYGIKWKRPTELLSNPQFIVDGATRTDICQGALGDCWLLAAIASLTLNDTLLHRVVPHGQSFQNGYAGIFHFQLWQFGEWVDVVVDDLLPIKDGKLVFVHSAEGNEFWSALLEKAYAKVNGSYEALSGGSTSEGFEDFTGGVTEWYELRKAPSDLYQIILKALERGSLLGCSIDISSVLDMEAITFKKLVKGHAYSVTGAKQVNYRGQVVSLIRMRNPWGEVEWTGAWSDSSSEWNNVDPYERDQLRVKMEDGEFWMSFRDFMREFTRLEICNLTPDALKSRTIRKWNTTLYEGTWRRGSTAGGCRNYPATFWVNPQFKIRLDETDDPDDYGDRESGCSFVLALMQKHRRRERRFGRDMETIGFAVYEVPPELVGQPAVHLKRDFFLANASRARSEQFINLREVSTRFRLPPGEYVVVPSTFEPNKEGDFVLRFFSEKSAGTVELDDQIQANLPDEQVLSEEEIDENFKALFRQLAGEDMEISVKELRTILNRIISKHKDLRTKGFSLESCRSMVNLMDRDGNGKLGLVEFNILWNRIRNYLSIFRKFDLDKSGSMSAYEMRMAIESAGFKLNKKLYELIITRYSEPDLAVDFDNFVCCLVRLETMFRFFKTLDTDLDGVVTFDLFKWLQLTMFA
Sequence (P04632 whole entry partner): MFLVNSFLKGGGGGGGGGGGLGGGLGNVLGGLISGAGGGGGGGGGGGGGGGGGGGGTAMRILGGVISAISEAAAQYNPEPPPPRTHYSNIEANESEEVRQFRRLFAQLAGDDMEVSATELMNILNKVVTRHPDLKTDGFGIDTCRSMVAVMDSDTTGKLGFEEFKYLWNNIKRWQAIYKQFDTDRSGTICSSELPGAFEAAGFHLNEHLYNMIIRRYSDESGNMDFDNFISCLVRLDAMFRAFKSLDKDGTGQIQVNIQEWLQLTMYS
Experiment: Inhibition of cysteine protease activity: calpain I, Succ-Leu-Tyr-MNA substrate hydrolysis
Assay type: biochemical
Measurement parameters: Table 5, achiral P2 mimetic α-ketoamides
Protocol: To evaluate inhibitory activity, stock solutions (40 times concentrated) of each compound to be tested were prepared in 100% anhydrous DMSO and 5 μl of each inhibitor preparation were aliquoted into each of three wells of a 96-well plate. […] Substrate hydrolysis was monitored every 5 minutes for a total of 30 minutes. […] Inhibition of calpain I activity was calculated as the percent decrease in the rate of substrate hydrolysis in the presence of inhibitor relative to the rate in its absence. […]
Form field: IC50 (one value per entry).
Numeric only. Scale: nM

# annotated cases, reported IC50 shown
COc1cccc(OC)c1C(=O)N[C@@H](Cc1ccccc1)C(=O)C(=O)NCCNS(=O)(=O)c1ccc(-c2ccon2)s1    4000
O=C(CCCc1ccccc1)N[C@@H](Cc1ccccc1)C(=O)C(=O)NCCNS(=O)(=O)c1ccc(-c2ccccn2)s1    1500

# next molecule below
Prompt: Which value of IC50 has been reported for "N#Cc1cccc(-c2ccc(S(=O)(=O)NCCNC(=O)C(=O)[C@H](Cc3ccccc3)NC(=O)CCC3CCCC3)s2)c1" in the records?
Completion: 420

###

Form field: IC50 (one value per entry).
Assayed system: Recombinant human calpain I (Homo sapiens)
Construct: made in house
Experiment: Inhibition of cysteine protease activity: calpain I, Succ-Leu-Tyr-MNA substrate hydrolysis
Format: biochemical
Measurement parameters: Table 4, α-ketoamides
Numeric only. Scale: nM

CN(Cc1cccc(-c2ccc(S(=O)(=O)NCCNC(=O)C(=O)[C@H](Cc3ccccc3)NC(=O)[C@@H](COCc3ccccc3)NS(C)(=O)=O)s2)c1)C1CCCCC1    36
CC(C)(C)OC(=O)NC1CCCC(NC(=O)C(=O)[C@H](Cc2ccccc2)NC(=O)[C@@H](COCc2ccccc2)NS(C)(=O)=O)C1 (some centres unmarked)    42
CS(=O)(=O)N[C@H](COCc1ccccc1)C(=O)N[C@@H](Cc1ccccc1)C(=O)C(=O)NCCNS(=O)(=O)c1ccc(-c2cccc(CN3CCCC3)c2)s1    24

Prompt: Which value of IC50 has been reported for "CS(=O)(=O)N[C@H](COCc1ccccc1)C(=O)N[C@@H](Cc1ccccc1)C(=O)C(=O)NCCS(=O)(=O)Nc1ccc(C(F)(F)F)cc1" in the records?
Completion: 32

Prompt: Which value of IC50 has been reported for "CS(=O)(=O)N[C@H](COCc1ccccc1)C(=O)N[C@@H](Cc1ccccc1)C(=O)C(=O)NCCNS(=O)(=O)c1ccc(-c2cccc(C#N)c2)s1" in the records?
Completion: 10

Prompt: Which value of IC50 has been reported for "CCN(CC)Cc1cccc(-c2ccc(S(=O)(=O)NCCNC(=O)C(=O)[C@H](Cc3ccccc3)NC(=O)[C@@H](COCc3ccccc3)NS(C)(=O)=O)s2)c1" in the records?
Completion: 22

Prompt: Which value of IC50 has been reported for "CS(=O)(=O)N[C@H](COCc1ccccc1)C(=O)N[C@@H](Cc1ccccc1)C(=O)C(=O)NCCNS(=O)(=O)c1ccc(-c2cccc(CN3CCCCC3)c2)s1" in the records?
Completion: 30

Prompt: Which value of IC50 has been reported for Cc1cccc(-c2ccc(S(=O)(=O)NCCNC(=O)C(=O)C(Cc3ccccc3)NC(=O)C(COCc3ccccc3)NS(C)(=O)=O)s2)c1 (mixture of isomers) in the records?
Completion: 36

Prompt: Which value of IC50 has been reported for "CS(=O)(=O)N[C@H](COCc1ccccc1)C(=O)N[C@@H](Cc1ccccc1)C(=O)C(=O)NCCNS(=O)(=O)c1ccc(-c2cccc(CN3CCOCC3)c2)s1" in the records?
Completion: 18

Prompt: Which value of IC50 has been reported for "CS(=O)(=O)N[C@H](COCc1ccccc1)C(=O)N[C@@H](Cc1ccccc1)C(=O)C(=O)NCCNS(=O)(=O)c1ccc(-c2ccccc2C=O)s1" in the records?
Completion: 24

Prompt: Which value of IC50 has been reported for CS(=O)(=O)NC(COCc1ccccc1)C(=O)NC(Cc1ccccc1)C(=O)C(=O)NCCNS(=O)(=O)c1ccc(-c2cccc(F)c2)s1 (mixture of isomers) in the records?
Completion: 18

Prompt: Which value of IC50 has been reported for "CS(=O)(=O)N[C@H](COCc1ccccc1)C(=O)N[C@@H](Cc1ccccc1)C(=O)C(=O)NCCCS(=O)(=O)Nc1ccc(C(F)(F)F)cc1" in the records?
Completion: 23

Prompt: Which value of IC50 has been reported for CC(=O)Nc1cccc(-c2ccc(S(=O)(=O)NCCNC(=O)C(=O)C(Cc3ccccc3)NC(=O)C(COCc3ccccc3)NS(C)(=O)=O)s2)c1 (mixture of isomers) in the records?
Completion: 11

Prompt: Which value of IC50 has been reported for CS(=O)(=O)NC(C(=O)NC(Cc1ccccc1)C(=O)C(=O)NCCNS(=O)(=O)c1ccc(-c2ccccn2)s1)c1ccccc1 (mixture of isomers) in the records?
Completion: 21

The measured values listed here are drawn from patent US7001907B2.
